Source: PubChem BioAssay (NCI)

# Tested on: T-47D breast
# test: NCI-60 one-dose screen, 48 h (100 = growth as untreated, 0 = no growth, -100 = all killed)
# recorded-conditions: 10 µM unless noted
Compounds without any hit were thinned out: in the full panel of roughly 83,000, 20% have a hit.

- molecule: "COc1ccc(/C=C2\\N=C(c3ccccc3)N(c3ccc(-c4nc5ccc(C)cc5s4)cc3)C2=O)cc1"
  system-tested: "T-47D breast"
  endpoint-unit: "%"
  growth: 54.1
- molecule: "Cc1cccc(NC(=O)c2sc3nc4c(cc3c2N)CCCC4)c1C"
  system-tested: "T-47D breast"
  endpoint-unit: "%"
  growth: 36.3
- molecule: "N#C/C(=C\\c1c(-c2ccccc2)[nH]c2ccccc12)S(=O)(=O)c1ccccc1"
  system-tested: "T-47D breast"
  endpoint-unit: "%"
  growth: 38.9
- molecule: "O=C(NC1CCN(Cc2ccccc2)CC1)c1cc2nc(-c3ccc(Cl)s3)cc(C(F)(F)F)n2n1"
  system-tested: "T-47D breast"
  endpoint-unit: "%"
  growth: 97.1
- molecule: "CCN1C(=O)N(CC)C2C1NC(=S)N2/N=C/C=C/c1ccccc1OC (stereo not given)"
  system-tested: "T-47D breast"
  endpoint-unit: "%"
  growth: 65.9
- molecule: "CC[C@H](C)[C@@H](C(=O)OC)n1cc(CNC(=O)[C@@H](Cc2ccccc2)NC(=O)OCc2ccccc2)nn1"
  system-tested: "T-47D breast"
  endpoint-unit: "%"
  growth: 107
- molecule: "COc1ccc2sc3c(NCCCN)nc4ccccc4c3c(=O)c2c1"
  system-tested: "T-47D breast"
  endpoint-unit: "%"
  growth: -32.6
- molecule: "O=c1oc2ccc(I)cc2c(=O)n1-c1ccc(F)cc1F"
  system-tested: "T-47D breast"
  endpoint-unit: "%"
  growth: -13.5
- molecule: "O=C(Nc1ccc(N2CCNCC2)cn1)c1[nH]ncc1Nc1ncnc2sccc12"
  system-tested: "T-47D breast"
  endpoint-unit: "%"
  growth: -4.16
- molecule: "CC(=O)c1ccc2oc(=O)n(Cc3ccc(C#N)cc3)c(=O)c2c1"
  system-tested: "T-47D breast"
  endpoint-unit: "%"
  growth: 104
